Reference for the values: patent US20260055079A1

- tested_system: PARP3 (Homo sapiens (Human), UniProt Q9Y6F1)
property_measured: IC50

Lab note: compound CC#Cc1ccc2c(=O)[nH]nc(Cc3ccc(F)c(C(=O)N4CCN(c5ccc(C#N)cn5)CC4)c3)c2c1 tested on PARP3 (Homo sapiens (Human), UniProt Q9Y6F1); recorded IC50 was > 3 µM

###

- tested_system: His-GST-PARP7 (Homo sapiens (Human), UniProt Q7Z3E1)
- Sequence (Q7Z3E1 whole entry): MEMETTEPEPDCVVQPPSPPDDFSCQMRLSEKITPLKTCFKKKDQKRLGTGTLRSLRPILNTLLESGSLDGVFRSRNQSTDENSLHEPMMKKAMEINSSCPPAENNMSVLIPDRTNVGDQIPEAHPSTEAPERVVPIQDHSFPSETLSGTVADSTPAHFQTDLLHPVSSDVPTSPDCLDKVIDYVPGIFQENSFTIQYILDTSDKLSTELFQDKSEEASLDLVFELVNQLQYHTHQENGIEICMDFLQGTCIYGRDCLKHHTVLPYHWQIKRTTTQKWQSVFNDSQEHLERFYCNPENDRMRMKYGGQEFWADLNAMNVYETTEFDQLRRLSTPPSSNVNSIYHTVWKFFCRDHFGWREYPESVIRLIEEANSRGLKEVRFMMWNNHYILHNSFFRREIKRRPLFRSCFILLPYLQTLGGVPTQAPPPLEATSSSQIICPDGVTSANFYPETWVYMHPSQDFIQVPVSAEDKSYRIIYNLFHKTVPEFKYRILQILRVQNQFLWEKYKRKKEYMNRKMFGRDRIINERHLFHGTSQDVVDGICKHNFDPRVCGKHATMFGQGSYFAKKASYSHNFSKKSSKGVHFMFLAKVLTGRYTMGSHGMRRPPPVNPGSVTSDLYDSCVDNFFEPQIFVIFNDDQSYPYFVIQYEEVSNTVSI
- test_protocol: PARP7 biochemical assay
- condition_info: read-out: PARP7 IC50
property_measured: IC50

Consider the following illustrative entries.
* CC#Cc1ccc2c(=O)[nH]nc(Cc3ccc(F)c(C(=O)NC(C)c4nnc(C(F)(F)F)o4)c3)c2c1 (stereo not shown) | > 2000 nM
* CC#Cc1ccc2c(=O)[nH]nc(Cc3ccc(F)c(C(=O)N4CCn5c(nnc5C5CC5)C4)c3)c2c1 | < 50 nM
* COc1c(Oc2ccccc2)ccc2c(=O)[nH]nc(Cc3ccc(F)c(C(=O)N4CCN(c5ccc(C#N)cn5)CC4)c3)c12 | 50 to 100 nM

GET /value?item= N#Cc1ccc(N2CCN(C(=O)c3cc(Cc4n[nH]c(=O)c5ccc(OC(F)F)cc45)ccc3F)CC2)nc1 &field=IC50 returns < 50 nM

###

- tested_system: PARP14wwe (Homo sapiens, UniProt Q460N5)
- Sequence (Q460N5 whole entry, looked up): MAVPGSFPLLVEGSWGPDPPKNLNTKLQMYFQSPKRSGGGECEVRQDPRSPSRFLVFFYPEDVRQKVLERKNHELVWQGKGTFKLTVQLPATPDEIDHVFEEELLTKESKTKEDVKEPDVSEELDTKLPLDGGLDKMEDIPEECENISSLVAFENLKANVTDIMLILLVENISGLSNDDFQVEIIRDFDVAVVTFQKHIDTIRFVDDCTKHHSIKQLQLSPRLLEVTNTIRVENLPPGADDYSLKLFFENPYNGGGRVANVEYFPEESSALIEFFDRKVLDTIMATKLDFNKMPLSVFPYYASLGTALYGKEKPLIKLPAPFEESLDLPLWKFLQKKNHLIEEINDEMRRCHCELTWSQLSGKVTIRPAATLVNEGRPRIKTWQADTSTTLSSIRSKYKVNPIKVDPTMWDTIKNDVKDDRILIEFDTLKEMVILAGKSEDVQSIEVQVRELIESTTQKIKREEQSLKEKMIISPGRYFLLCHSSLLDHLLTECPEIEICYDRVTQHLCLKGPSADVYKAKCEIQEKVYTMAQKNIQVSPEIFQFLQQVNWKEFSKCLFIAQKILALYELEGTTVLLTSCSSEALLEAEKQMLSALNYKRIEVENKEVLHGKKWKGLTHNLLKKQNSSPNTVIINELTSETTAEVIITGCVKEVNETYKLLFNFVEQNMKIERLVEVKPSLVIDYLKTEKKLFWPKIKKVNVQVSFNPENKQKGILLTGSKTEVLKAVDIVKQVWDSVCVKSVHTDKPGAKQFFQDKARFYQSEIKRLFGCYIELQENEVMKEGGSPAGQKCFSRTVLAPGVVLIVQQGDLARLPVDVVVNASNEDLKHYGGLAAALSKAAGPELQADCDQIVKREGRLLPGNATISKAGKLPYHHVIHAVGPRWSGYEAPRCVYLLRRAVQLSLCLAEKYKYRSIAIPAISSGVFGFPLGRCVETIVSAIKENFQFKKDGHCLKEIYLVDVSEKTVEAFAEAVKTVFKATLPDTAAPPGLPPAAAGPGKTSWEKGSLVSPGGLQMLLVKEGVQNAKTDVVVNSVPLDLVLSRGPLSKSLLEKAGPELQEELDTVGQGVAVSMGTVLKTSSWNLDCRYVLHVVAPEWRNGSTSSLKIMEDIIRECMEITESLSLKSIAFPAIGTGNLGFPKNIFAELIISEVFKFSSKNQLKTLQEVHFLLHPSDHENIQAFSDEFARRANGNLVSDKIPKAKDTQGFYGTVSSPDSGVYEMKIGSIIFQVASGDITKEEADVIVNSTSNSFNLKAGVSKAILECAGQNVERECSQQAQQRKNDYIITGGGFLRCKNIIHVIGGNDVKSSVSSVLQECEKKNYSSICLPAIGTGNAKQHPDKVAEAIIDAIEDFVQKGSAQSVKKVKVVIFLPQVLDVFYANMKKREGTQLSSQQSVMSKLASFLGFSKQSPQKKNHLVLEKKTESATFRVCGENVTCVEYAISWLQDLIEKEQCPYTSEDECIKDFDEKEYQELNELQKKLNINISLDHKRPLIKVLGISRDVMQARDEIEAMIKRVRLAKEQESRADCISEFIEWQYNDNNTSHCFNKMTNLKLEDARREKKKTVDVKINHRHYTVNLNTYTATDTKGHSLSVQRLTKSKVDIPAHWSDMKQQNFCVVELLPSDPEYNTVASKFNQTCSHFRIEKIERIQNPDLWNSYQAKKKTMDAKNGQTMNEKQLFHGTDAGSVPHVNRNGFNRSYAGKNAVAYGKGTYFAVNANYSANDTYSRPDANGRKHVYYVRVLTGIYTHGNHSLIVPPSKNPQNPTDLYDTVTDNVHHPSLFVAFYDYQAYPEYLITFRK
property_measured: pIC50
Value format note: pIC50 is -log10 of concentration (mol/L); just state the number.

Lab note: compound CC#Cc1ccc2c(=O)[nH]nc(Cc3ccc(F)c(C(=O)N4CCN(c5ccc(C#N)cn5)CC4)c3)c2c1 tested on PARP14wwe (Homo sapiens, UniProt Q460N5); recorded pIC50 was 5.98

###

- tested_system: His-GST-PARP7 (Homo sapiens (Human), UniProt Q7Z3E1)
- test_protocol: PARP7 biochemical assay
- condition_info: read-out: PARP7 IC50
property_measured: IC50

Consider the following illustrative entries.
• Cc1cccc(Oc2ccc3c(=O)[nH]nc(Cc4ccc(F)c(C(=O)N5CCN(c6ccc(C#N)cn6)CC5)c4)c3c2)c1 = < 50 nM
• CC#Cc1ccc2c(=O)[nH]nc(C(C)OCCC(=O)N3CCN(c4ncc(C(F)(F)F)cn4)CC3)c2c1 (stereo not drawn) = < 50 nM
• CC#Cc1ccc2c(=O)[nH]nc(Cc3ccc(F)c(C(=O)N4CCN(c5cc(C(=O)NC)ccn5)CC4)c3)c2c1 = < 50 nM
• N#Cc1ccc(N2CCN(C(=O)c3cc(Cc4n[nH]c(=O)c5ccc(C#CC6CC6)cc45)ccc3F)CC2)nc1 = 100 to 500 nM
• COc1nc(N2CCN(C(=O)c3cc(Cc4n[nH]c(=O)c5ccc(OC6CCC6)cc45)ccc3F)CC2)ccc1C#N = 50 to 100 nM

GET /value?item= N#Cc1ccc(N2CCN(C(=O)c3cc(Cc4n[nH]c(=O)c5ccc(OC6CC6)cc45)ccc3F)CC2)nc1 &field=IC50 returns < 50 nM

###

- Test system: HARA (human lung squamous cell carcinoma) cells
- test_protocol: Cell proliferation assay (CellTiter-Glo), HARA
- Format: cell-based
- condition_info: Homo sapiens, 144 h; 6 days, CellTiter-Glo; read-out: HARA GI50
property_measured: GI50

• COc1ccnc(N2CCN(C(=O)c3cc(Cc4n[nH]c(=O)c5ccc(OC6CCC6)cc45)ccc3F)CC2)c1 = 1 to 5 µM

GET /value?item= N#Cc1ccc(N2CCN(C(=O)c3cc(Cc4n[nH]c(=O)c5ccc(OC6CCC6)cc45)ccn3)CC2)nc1 &field=GI50 returns > 5 µM

GET /value?item= N#Cc1ccc(N2CCN(C(=O)c3cncc(Cc4n[nH]c(=O)c5ccc(OC6CCC6)cc45)c3)CC2)nc1 &field=GI50 returns > 5 µM

GET /value?item= O=C(c1cc(Cc2n[nH]c(=O)c3ccc(OC4CCC4)cc23)ccc1F)N1CCN(c2ccc(CO)cn2)CC1 &field=GI50 returns > 5 µM

GET /value?item= CC#Cc1ccc2c(=O)[nH]nc(Cc3ccc(F)c(C(=O)N4CCN(c5ccc(C#N)cn5)CC4)c3)c2c1 &field=GI50 returns 1 to 5 µM

GET /value?item= CC(CC(=O)N1CCN(c2ccc(C#N)cn2)CC1)NCc1n[nH]c(=O)c2ccc(OC3CC3)cc12 (stereo not shown) &field=GI50 returns 1 to 5 µM

GET /value?item= N#Cc1ccc(N2CCCN(C(=O)c3cc(Cc4n[nH]c(=O)c5ccc(OC6CCC6)cc45)ccc3F)CC2)nc1 &field=GI50 returns 1 to 5 µM
